Test system: U266
method.summary: MTT cell viability assay, myeloma cell line U266
Type: cell-based, human
details: Homo sapiens, U-266; U266, MTT, 18 hours, doses 0-50 μM; read-out: IC50, cell viability
pIC50: −log10 of the molar value.

compound	system.under.test	pIC50
c1ccc2c(COc3nn(CCN4CCCCC4)c4ccccc34)cccc2c1 [PGN6]	U266	4.60
Nc1ccc2c(c1)c(OCc1cccc3ccccc13)nn2CCN1CCCCC1 [PGN72]	U266	4.67

* * *

Test system: MM1S
method.summary: MTT cell viability assay, myeloma cell line MM1S
Assay type: cell-based, human
details: Homo sapiens, MM1.S, 18 h, read-out: IC50, cell viability

compound	IC50 (µM)
Nc1ccc2c(c1)c(OCc1ccc3ccccc3c1)nn2CCN1CCCCC1 [PGN34]	17.1

* * *

System: MM1S
method.summary: MTT cell viability assay, myeloma cell line MM1S
Format: cell-based, human
details: Homo sapiens, MM1.S; MM1S, MTT, 18 hours, doses 0-50 μM; read-out: IC50, cell viability
pIC50: −log10 of the molar value.

compound.string	pIC50
Nc1ccc2c(c1)c(OCc1cccc3ccccc13)nn2CCN1CCCCC1	4.61

* * *

Test system: U266-LR7
method.summary: MTT cell viability assay, myeloma cell line U266-LR7
Type: cell-based, human
details: U266-LR7, MTT, 18 hours, doses 0-50 μM; read-out: IC50, cell viability
Catalogue of IC50 readings, one per entry.

compound	IC50
CS(=O)(=O)O.Cc1c(C(=O)c2cccc3ccccc23)c2cccc3c2n1[C@H](CN1CCOCC1)CO3 [WIN-55]	17.2 µM
c1ccc2c(COc3nn(CCN4CCCC4)c4ccccc34)cccc2c1 [PGN17]	51 µM

* * *

Catalogue of pIC50 readings, one per entry.
System: U266
method.summary: MTT cell viability assay, myeloma cell line U266
Type: cell-based, human
details: U266, MTT, 18 hours, doses 0-50 μM; read-out: IC50, cell viability
pIC50: −log10 of the molar value.

compound	system.under.test	pIC50
c1ccc2c(COc3nn(CCN4CCCC4)c4ccccc34)cccc2c1 [PGN17]	U266	4.69
CS(=O)(=O)O.Cc1c(C(=O)c2cccc3ccccc23)c2cccc3c2n1[C@H](CN1CCOCC1)CO3 [WIN-55]	U266	4.76

* * *

System: MM1R
method.summary: MTT cell viability assay, myeloma cell line MM1R
Format: cell-based, human
details: Homo sapiens, MM.1R, 18 h, read-out: IC50, cell viability

compound.string	IC50 (µM)
Nc1ccc2c(c1)c(OCc1ccc3ccccc3c1)nn2CCN1CCCCC1	21

* * *

Tested on: HL60
method.summary: WST-1 cell viability assay, HL60
Type: cell-based, human
details: HL60, 18 hours
pIC50: −log10 of the molar value.

compound	pIC50
CS(=O)(=O)O.Cc1c(C(=O)c2cccc3ccccc23)c2cccc3c2n1[C@H](CN1CCOCC1)CO3 [WIN-55]	4.71

* * *

Test system: U266-LR7
method.summary: MTT cell viability assay, myeloma cell line U266-LR7
Type: cell-based, human
details: Homo sapiens, 18 h, read-out: IC50, cell viability

compound.string	IC50 [µM]
Nc1ccc2c(c1)c(OCc1ccc3ccccc3c1)nn2CCN1CCCCC1	17.8

* * *

Test system: RPMI-LR5
method.summary: MTT cell viability assay, myeloma cell line RPMI-LR5
Type: cell-based, human
details: Homo sapiens; RPMI-LRS, MTT, 18 hours, doses 0-50 μM; read-out: IC50, cell viability
Description: In vitro studies were carried out using six different human MM cell lines, U266, RPMI8226, MM1S, MM1R, U266-LR7, and RPMI-LR5. For ex vivo assays, human primary cells from healthy donors and MM patients were used (Table 1). […] The MM cell lines and primary cells were exposed to different doses of indazole compounds, and viability was evaluated at 18, 48, and 72 hours. […]
Catalogue of IC50 readings, one per entry.

molecule	unit.abbrev	IC50
c1ccc2c(COc3nn(CCN4CCCCC4)c4ccccc34)cccc2c1 [PGN6]	µM	13.7
Nc1ccc2c(c1)c(OCc1cccc3ccccc13)nn2CCN1CCCCC1 [PGN72]	µM	41.4

All values here come from patent US20200281897A1.
